Experiment: Test of acute toxicity (LD50) in mice (Experiment 6)
Assay type: in vivo
Details: mouse, in vivo, po, orally, 7 days observation, Weil method
PROPERTY MEASURED: LD50 at 168 h (mg/kg)
The reply should contain only the number, in mg/kg.

IN: Item Cl.Cl.Clc1ccc(CN2CCN(CC=Cc3ccc(Cl)cc3Cl)CC2)cc1 [Compound of this invention] : provide LD50 at 168 h
OUT: 996
